Hello, the source for this data is patent US20160185837A1, in case you need it.

# assayed_target: T1, rat GIP receptor (rat, UniProt P43219 19-455)
# T1 sequence (looked up): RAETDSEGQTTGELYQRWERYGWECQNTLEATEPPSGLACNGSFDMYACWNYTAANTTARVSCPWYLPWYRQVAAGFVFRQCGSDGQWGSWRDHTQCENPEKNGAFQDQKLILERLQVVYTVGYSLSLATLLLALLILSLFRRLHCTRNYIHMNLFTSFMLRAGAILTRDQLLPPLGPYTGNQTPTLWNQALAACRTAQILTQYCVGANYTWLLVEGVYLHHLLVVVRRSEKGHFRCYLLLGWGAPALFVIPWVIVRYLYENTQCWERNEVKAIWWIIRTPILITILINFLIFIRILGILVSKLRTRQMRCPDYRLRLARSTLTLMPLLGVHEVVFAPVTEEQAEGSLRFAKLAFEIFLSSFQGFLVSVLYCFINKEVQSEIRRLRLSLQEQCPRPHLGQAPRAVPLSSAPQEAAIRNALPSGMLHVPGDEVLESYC
# experiment: cell-based or functional assay
assay_readout: cAMP EC50, Batch 2 (nM)

> print(dat)
                                     binder  unit.descriptor  result.number
1  IP324 (Fc fusion) YSEGTFTSDYSKLLEEEAVRLFIEWLVKGPGGGGGSGGGGSGGGGSGGGGSGGGGSGGGGSGGGGSA               nM          0.141
2  IP149 (Fc fusion) YSQGTFTSDYSKLLEEEAVRLFIEWLVKGPAPPGGSGSTASSGSGSATGGGGAATHTCPPCPAPEF               nM           0.19
3  IP325 (Fc fusion) YSEGTFTSDYSKLLEEEAVRLFIEWLVKGPGGGGGSGGGGSGGGGSGGGGSGGGGSGGGGSGGGGSGGGGSA               nM          0.154
